The following binders are listed with their measured koff values.
# targetEntity: alpha-synuclein (natural human wildtype alpha-synuclein) (human, UniProt P37840 1-140)
# methodSummary: Biacore (SPR) full kinetic analysis
# Method: Biacore full binding kinetic analysis of antibodies were carried out using Biacore. Detailed binding kinetic parameters (association rate, ka, dissociation rate, kd, and affinity constant, KD) were determined for murine 1H7 (FIG. 3A), chimeric 1H7 (FIG. 3B) and humanized 1H7 (Hu1H7VHv3-Hu1H7VLv3, Hu1H7VHv3-Hu1H7VLv1, Hu1H7VHv4-Hu1H7VLv1) antibodies (FIG. 3C).
// units = s⁻¹; emit number, no label

Examples with answers:
Inquiry: Quote koff reported for Humanized 1H7 H3L3 (Hu1H7VHv3-Hu1H7VLv3) (antibody, V domains shown) VH: QVQLVQSGAEVKKPGASVKVSCKASGYTFTSYYIHWVRQAPGQGLEWMGWIYPGSGNTKYSEKFKGRATMTADTSTSTAYMELRSLRSDDTAVYYCARDGCYGFAYWGQGTLVTVSS VL: DIQLTQSPSSLSASVGDRVTITCKASQSVDYDGDSYMNWYQQKPGKAPKFLICAASNLESGVPSRFSGSGSGTDFTLTISSLQPEDFATYYCQQSNEDPFTFGQGTKLEIK please.
Reply text: 0.011

Inquiry: Quote koff reported for Murine 1H7 (antibody, mouse IgG1, V domains shown, Mouse IgG1; also called m1H7; mouse 1H7) VH: VQLQQSGPELVKPGTSVKISCKASGYSFTSYYIHWVKQSPGQGLEWIGWIYPGSGNTKYSEKFKGKATLTADTSSSTAYMQLSSLTSEDSAVYFCARDGCYGFAYWGQGTLVTVS VL: DIVLTQSPASLAVSLGQRATISCKASQSVDYDGDSYMNWYQQKPGQPPKFLICAASNLESGIPARFSGSGSGTDFTLNIHPVEEEDAATYYCQQSNEDPFTFGSGTKLEIK please.
Reply text: 0.0096

Here is the next item to consider.
Inquiry: Quote koff reported for Humanized 1H7 H5L1 (Hu1H7VHv5-Hu1H7VLv1) (antibody, V domains shown) VH: QVQLVQSGAEVKKPGASVKVSCKASGYTFTSYYIHWVRQAPGQGLEWMGWIYPGSGNTKYSEKFKGRATMTADTSTSTAYMELRSLRSDDTAVYYCARDGSYGFAYWGQGTLVTVSS VL: DIQLTQSPSSLSASVGDRVTITCKASQSVDYDGDSYMNWYQQKPGKAPKFLICAASNLESGVPSRFSGSGSGTDFTLTISSLQPEDAATYYCQQSNEDPFTFGQGTKLEIK please.
Reply text: 0.056
